From: patent US20220112288A1

biological target: T1, human CD4 on the surface of SKW3 cells or human PBMCs (human, UniProt P01730 26-458); test: FACS primary screen, non-clonal hybridoma supernatant, SKW3 vs SKW3 CD4 KO cells, anti-mouse Fc A647
T1 construct: whole, on cells; SKW3 CD4 knockout cells served as the negative cell line; also called hCD4; SKW3 WT
Overview of reported SKW3 WT vs KO anti-mFc-647 across a group of binders:
Report only the number, with the unit ratio understood.

// known answers, use as guide
| binder | SKW3 WT vs KO anti-mFc-647, ratio |
| --- | --- |
| 75110_03L12A (antibody, V domains shown, Tested here as non-clonal hybridoma supernatant from AlivaMab Mouse Kappa mice (detected with anti-mouse Fc and anti-human kappa)) VH: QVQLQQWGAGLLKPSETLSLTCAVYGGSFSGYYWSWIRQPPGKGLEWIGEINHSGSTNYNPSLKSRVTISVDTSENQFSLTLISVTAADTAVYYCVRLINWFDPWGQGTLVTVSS VL: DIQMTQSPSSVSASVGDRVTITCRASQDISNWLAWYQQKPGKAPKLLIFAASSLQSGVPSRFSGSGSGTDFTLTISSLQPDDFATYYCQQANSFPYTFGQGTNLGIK | 4.2 |
| 75110_11D03A (antibody, V domains shown, Tested here as non-clonal hybridoma supernatant from AlivaMab Mouse Kappa mice (detected with anti-mouse Fc and anti-human kappa)) VH: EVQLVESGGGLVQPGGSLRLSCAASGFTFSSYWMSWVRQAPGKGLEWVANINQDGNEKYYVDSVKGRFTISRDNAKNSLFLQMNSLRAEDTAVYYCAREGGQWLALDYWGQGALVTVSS VL: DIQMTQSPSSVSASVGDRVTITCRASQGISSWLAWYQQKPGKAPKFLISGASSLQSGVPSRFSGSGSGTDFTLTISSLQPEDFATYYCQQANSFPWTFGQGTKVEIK | 2.6 |

For the next question, use this binder.
For the binder shown here, 75110_01J09A (antibody, V domains shown, Tested here as non-clonal hybridoma supernatant from AlivaMab Mouse Kappa mice (detected with anti-mouse Fc and anti-human kappa)) VH: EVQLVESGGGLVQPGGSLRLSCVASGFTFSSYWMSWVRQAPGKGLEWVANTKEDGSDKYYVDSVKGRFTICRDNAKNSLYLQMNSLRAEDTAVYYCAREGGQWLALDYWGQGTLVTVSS VL: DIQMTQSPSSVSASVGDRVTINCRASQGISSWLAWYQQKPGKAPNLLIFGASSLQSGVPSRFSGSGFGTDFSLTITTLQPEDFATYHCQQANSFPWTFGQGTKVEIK , give the reported SKW3 WT vs KO anti-mFc-647. 7.5
